- Tested on: HEK-293T
- assay procedure: Incucyte cell viability with HEK293T; also: unitless GR value; below 1 slowed growth and below 0 cell loss
- Type: toxicity, cell-based
- conditions: human, 24 h, 10 µM, compound concentration 10 uM, replicate number 1
I would appreciate it if you labelled entries yes (1) when Growth Rate is 0.7 or higher, otherwise no (0).

* S=c1[nH]nc(-c2cccs2)n1-c1ccccc1 | yes (1)
* Cl.O=C(NCCN1CCC2(CC1)C(=O)NCN2c1cccc(F)c1)c1ccc2ccccc2c1 | no (0)
* CC(C)(C)c1cnc(CSc2cnc(NC(=O)C3CCNCC3)s2)o1 | no (0)
* Cc1cc(SCc2sc(-c3ccc(C(F)(F)F)cc3)nc2C)ccc1OCC(=O)O | yes (1)
* COc1ccc(CSc2nnc(-c3ccc4ncsc4c3)o2)cc1C(F)(F)F | yes (1)
* O=C1NC(NC23CC4CC(CC(C4)C2)C3)=N/C1=C\c1ccc2ncsc2c1 | no (0)
* O=C1CN(c2ccccc2F)C(NCCN2CCOCC2)=C1c1nc2cc(Br)ccc2c(=O)[nH]1 | yes (1)
* COc1cc(N2CCN(C)CC2)ccc1Nc1ncc2c(n1)N(C)c1ccccc1C(=O)N2CC(F)(F)F | no (0)

Data origin, for the record: ChEMBL document CHEMBL5303304
